Ref: the Human Domainome abundance scans (Beltran et al. 2025)

B1: Chromodomain-helicase-DNA-binding protein 3, residues 374 to 426; numbered along this chain, Q12873 (parent)
chain: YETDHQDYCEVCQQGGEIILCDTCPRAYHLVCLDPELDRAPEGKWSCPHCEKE

# Variants of: B1
# Measurement Description: abundance fitness (aPCA) (normalised: wild type 0, dead -1); higher = more abundant; growth selection in yeast, the domain comes from the species named
# Assay Conditions: Homo sapiens
Readout Type: abundance fitness
Numbers only.

E10Q    0.116
Q14I    -0.17
D22R    0.053
L37H    -0.037
L30Y    0.098
I19F    -0.277
L33Y    -0.133
D34W    -0.747

// for each variant below, give its abundance fitness
1. Y8C
2. H29S
3. E10D
4. D34V
5. D22C

A:
1: -0.211; 2: -0.852; 3: 0.169; 4: -0.1; 5: -0.229

// for each variant below, give its abundance fitness
1. G16R
2. Y28K
3. E36W

A:
0.197
-0.578
-0.478

// for each variant below, give its abundance fitness
1. L20D
2. I18W

A:
0.015
-0.152

// for each variant below, give its abundance fitness
1. L33H
2. L30D
3. E10M
4. D38Y

A:
1. -0.146
2. -0.264
3. -0.301
4. -0.522
